These entries and their values trace back to PubChem BioAssay (Tox21).

- Method Description: Human pregnane X receptor (PXR) small molecule agonists, qHTS cell viability counter screen (AID 1346977); further: nearly all actives have a fitted effect of over 50% in size
- Test Context: PXR-Luc HepG2 viability, CellTiter-Fluor, 24 h; series mostly up to 92.4 µM
Records with an inconclusive call do not appear. Activity calls are given as the source filed them. The call rests on the fitted dose curve; in most records, active means well fitted cell-killing curve with a large enough effect in the repeat runs; inconclusive means weak or mixed curves, or effect the other way; inactive means flat fitted curve, though single readings scatter.
Mark one answer only. Choices: class 1 for active, class 0 for inactive

Molecule	Group Label
N#Cc1ccc(C/C(=N/NC(=O)Nc2ccc(OC(F)(F)F)cc2)c2cccc(C(F)(F)F)c2)cc1	class 0
[Cl][Eu]([Cl])[Cl]	class 0

Query: Outcome? Cn1ccnc1
Response: class 0

Query: Outcome logged for CCN(CCC#N)c1ccc(N=Nc2ccc([N+](=O)[O-])cc2)cc1 in this assay:
Response: class 0

Query: Tell me the recorded outcome of this test for Cc1cccc(C)c1C .
Response: class 0

Query: I would be grateful if you could indicate the recorded call for CCN(CC)c1ccc2c(c1)Oc1cc(N(CC)CC)ccc1C21OC(=O)c2ccccc21 .
Response: class 1

Query: Give the logged outcome of this assay for the following molecule: CC1(C)[C@H](C(=O)OCc2cccc(Oc3ccccc3)c2)[C@@H]1C=C(Cl)Cl
Response: class 0
